# Protocol description: S. pombe growth modifiers, basal conditions – strain 972, OD600, 24 h, no modulator, primary screen (AID 1090);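 also: basal condition with compound alone and no growth modifier present; test concentration not given here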
# Cond: S. pombe 972 growth, higher = more signal, called active from +8 up or from −8 down
The entries below are paired with their reported z-score.
Form rule: numeric answer, no unit written next to it.

Example entries begin here.
Query: Fill in: z-score of COCCOC(=O)N1C(=O)[C@@]2(c3cc(C#CC4=CCCCC4)ccc31)[C@H](c1ccccc1OCCO)N1[C@H](c3ccccc3)[C@H](c3ccccc3)OC(=O)[C@H]1[C@@H]2C(=O)N1CCN(c2ncccn2)CC1 is ___
Reply: -0.377

Query: Fill in: z-score of CCCN1C(=O)[C@@]2(Cc3ccccc31)N=C(c1ccc(OCCCO)cc1)O[C@H]2c1ccccc1 is ___
Reply: -7.39

Query: Fill in: z-score of CCCC[C@@H](O)C1=C(COC)C[C@H]2C(=O)N(C)C(=O)[C@H]2[C@H]1CO is ___
Reply: -1.77

Now look at this entry.
Query: Fill in: z-score of [N-]=[N+]=Nc1ccccc1[C@H]1OC(c2ccc(OCCCO)cc2)=N[C@@]1(Cc1ccccc1)C(=O)NCCN1CCOCC1 is ___
Reply: -1.75

---

# Protocol description: FRG1 expression reporter modulators in myotubes – cell-based, C2C12 myotubes, firefly/Renilla luciferase, luminescence, FRG1 inhibition for FSHD, primary screen (AID 1084)
# Cond: FRG1 promoter luciferase, higher = more signal, called active from +8 up or from −8 down
The entries below are paired with their reported z-score.
Form rule: numeric answer, no unit written next to it.

Example entries begin here.
Query: Fill in: z-score of Cc1ccc(C(C)CC(O)C2C=CC3C(=O)N(c4ccccc4)C(=O)C3N2Nc2ccccc2)o1 (stereo unspecified) is ___
Reply: -0.0963

Query: Fill in: z-score of CC(C)N1C(=O)C[C@@](C(=O)O)(c2ccc([N+](=O)[O-])cc2)[C@H]1c1ccc(CO)cc1 is ___
Reply: 0.161

Query: Fill in: z-score of CCC#CCN(Cc1ccccc1Br)[C@H](/C=C/C1CC1)[C@@H](O)Cc1ccccc1 is ___
Reply: -1.96

Query: Fill in: z-score of CC1CC/C=C\[C@H]2OC34C=CCN(c5ccc(Cl)cc5)C(=O)[C@H]3N(C(C)CO)C(=O)[C@]4(C)C2C(=O)O1 (stereo partly specified) is ___
Reply: 0.242

Query: Fill in: z-score of CCCC[C@@H]1C[C@H]1[C@@H](NC(=O)c1cccs1)c1ccccc1C(F)(F)F is ___
Reply: -0.0362

Query: Fill in: z-score of COCC(=C=CC[C@H](O)c1ccccc1OCCO)C[C@H](O)c1ccccn1 is ___
Reply: -0.996

Now look at this entry.
Query: Fill in: z-score of [N-]=[N+]=Nc1ccccc1[C@@H]1OC(c2ccc(OCCCO)cc2)=N[C@]1(Cc1ccccc1)C(=O)N1CCCCC1 is ___
Reply: -2.33

---

# Protocol description: compound effects on differentiated 3T3-L1 adipocyte viability – cell-based, 3T3-L1 adipocytes, calcein-AM fluorescence, 48 h, basal, profiling panel (AID 1163); also: test concentration not given here
# Cond: 3T3-L1 adipocytes viability, higher = more signal
# class 1 = z-score below 0.1 (exclusive); class 0 = z-score at/above 0.1

Query: Answer whether the compound CC(C)C(CO)N1C(=O)[C@@H]2[C@H]3C(=O)OCC=C[C@H]3OC23C=CCN(c2ccc(Cl)cc2)C(=O)[C@@H]13 (some centres not stated) has z-score strictly less than 0.1
Reply: class 0

Query: Answer whether the compound CC[C@@H]1O[Si](C(C)C)(C(C)C)c2c1cc(-c1cc(C)c(OC)c(C)c1)nc2-c1ccc(Oc2ccccc2)cc1 has z-score strictly less than 0.1
Reply: class 1

Query: Answer whether the compound O=C1CS(=O)(=O)C(c2cccc([N+](=O)[O-])c2)N1c1ccccc1 (configuration not stated) has z-score strictly less than 0.1
Reply: class 0

Query: Answer whether the compound CCOC(=O)C1=C[C@@H](c2ccccc2)N(S(=O)(=O)c2ccc(C)cc2)[C@H]1c1ccc(OC)cc1 has z-score strictly less than 0.1
Reply: class 1

Query: Answer whether the compound C=C[C@@H](OC)[C@H](OC(=O)Nc1ccc(OC)cc1)c1ccc(O)c(F)c1 has z-score strictly less than 0.1
Reply: class 0

Query: Answer whether the compound CCCC=C(CCC)[C@@H](NP(=O)(c1ccccc1)c1ccccc1)c1ccc(-c2ccccc2)cc1 has z-score strictly less than 0.1
Reply: class 1

***
Query: Answer whether the compound COCCOC(=O)N1C(=O)[C@@]2(c3cc(C#CCCO)ccc31)[C@H](c1ccc(OCCO)cc1)N1[C@H](c3ccccc3)[C@H](c3ccccc3)OC(=O)[C@H]1[C@@H]2C(=O)Nc1nc2ccccc2s1 has z-score strictly less than 0.1
Reply: class 0

The origin of these recorded values is PubChem BioAssay.
